List of Kd values.
targetOrSystem: hNTS2 (Homo sapiens, UniProt O95665)
Construct: expressed in transfected cells; host or cells: CHO-K1
Sequence (O95665 whole entry): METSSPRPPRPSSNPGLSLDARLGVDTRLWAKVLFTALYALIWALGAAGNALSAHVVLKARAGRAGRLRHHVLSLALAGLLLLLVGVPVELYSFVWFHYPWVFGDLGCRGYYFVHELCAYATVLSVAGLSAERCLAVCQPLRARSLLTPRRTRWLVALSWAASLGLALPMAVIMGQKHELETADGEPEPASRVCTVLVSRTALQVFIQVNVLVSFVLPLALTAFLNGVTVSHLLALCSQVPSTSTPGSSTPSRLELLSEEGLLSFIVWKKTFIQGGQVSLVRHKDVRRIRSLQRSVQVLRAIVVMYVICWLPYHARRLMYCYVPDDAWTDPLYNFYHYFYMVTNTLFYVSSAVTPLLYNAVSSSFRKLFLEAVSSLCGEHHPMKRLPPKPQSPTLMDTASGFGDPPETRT
assaySummary: Radioligand competition binding with [3H]NT, membranes of CHO-K1 cells expressing hNTS2
conditionDescription: Table 2; read-out: hNTS2 Geometric Mean ∀ SEM (equilibrium dissociation constant Kd)
Where a SMILES comes first, the peptide text is derived from it. [ ]: non-standard residue; d: D form. Ala(indol-4-yl) = N[C@@H](Cc1cccc2[nH]ccc12)C(=O)O; NMeR = CN[C@@H](CCCNC(=N)N)C(=O)O; Tle = CC(C)(C)[C@H](N)C(=O)O; dOrn = NCCC[C@@H](N)C(=O)O

compound: CC[C@H](C)[C@H](NC(=O)[C@H](Cc1ccc(O)cc1)NC(=O)[C@@H]1CCCN1C(=O)[C@@H](CCCN)NC(=O)[C@@H](N)CCCNC(=N)N)C(=O)N[C@@H](CC(C)C)C(=O)O [NT24, [D-Orn^9]NT(8-13)] (H-R[dOrn]PYIL-OH; N-terminus and C-terminus assumed)
Kd / nM: 790
//
compound: CC[C@H](C)[C@H](NC(=O)[C@@H](Cc1cccc2ccccc12)NC(=O)[C@@H]1CCCN1C(=O)[C@H](CCCNC(=N)N)NC(=O)[C@H](CCCNC(=N)N)NC)C(=O)N[C@@H](CC(C)C)C(=O)O [NT80, [N-methyl-Arg^8,D-3,1-Nal^11]NT(8-13)]
Kd / nM: 30
//
compound: CC(C)C[C@H](NC(=O)[C@@H](NC(=O)[C@H](Cc1cccc2[nH]ccc12)NC(=O)[C@@H]1CCCN1C(=O)[C@@H](CCCN)NC(=O)[C@@H](N)CCCNC(=N)N)C(C)(C)C)C(=O)O [NT77] (H-R[dOrn]P[Ala(indol-4-yl)][Tle]L-OH; N-terminus and C-terminus assumed)
Kd / nM: 460
//
compound: CN[C@@H](CCCNC(=N)N)C(=O)N[C@@H](CCCCN)C(=O)N1CCC[C@H]1C(=O)N[C@@H](Cc1cccc2[nH]ccc12)C(=O)N[C@H](C(=O)N[C@@H](CC(C)C)C(=O)O)C(C)(C)C [NT69L] (H-[NMeR]KP[Ala(indol-4-yl)][Tle]L-OH; C-terminus assumed)
Kd / nM: 2.1

====

targetOrSystem: hNTS1 (Homo sapiens, UniProt P30989)
Construct: expressed in transfected cells; host or cells: CHO-K1
Sequence (P30989 whole entry): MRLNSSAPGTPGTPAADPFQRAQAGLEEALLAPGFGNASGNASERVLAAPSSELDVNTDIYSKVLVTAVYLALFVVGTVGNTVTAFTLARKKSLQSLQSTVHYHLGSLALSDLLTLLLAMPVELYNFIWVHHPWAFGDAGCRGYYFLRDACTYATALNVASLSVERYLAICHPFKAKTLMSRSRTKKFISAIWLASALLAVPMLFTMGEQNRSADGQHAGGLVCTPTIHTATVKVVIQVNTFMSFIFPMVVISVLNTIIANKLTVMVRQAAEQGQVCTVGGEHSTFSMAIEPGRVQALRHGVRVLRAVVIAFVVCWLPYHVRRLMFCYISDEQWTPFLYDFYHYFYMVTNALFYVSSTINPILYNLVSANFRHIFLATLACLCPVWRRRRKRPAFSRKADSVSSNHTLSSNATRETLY
assaySummary: Radioligand competition binding with [3H]NT, membranes of CHO-K1 cells expressing hNTS1
conditionDescription: read-out: hNTS1 Geometric Mean ∀ SEM (equilibrium dissociation constant Kd)
pKd: −log10 of the molar value. Where a SMILES comes first, the peptide text is derived from it. [ ]: non-standard residue; d: D form. Ala(indol-4-yl) = N[C@@H](Cc1cccc2[nH]ccc12)C(=O)O; NMeR = CN[C@@H](CCCNC(=N)N)C(=O)O; pGlu = O=C1CC[C@@H](C(=O)O)N1; Tle = CC(C)(C)[C@H](N)C(=O)O; dOrn = NCCC[C@@H](N)C(=O)O; Orn = NCCC[C@H](N)C(=O)O
pKd of 7 or higher: Satisfied. Under 7: Not satisfied.

molecule: CN[C@@H](CCCNC(=N)N)C(=O)N[C@@H](CCCCN)C(=O)N1CCC[C@H]1C(=O)N[C@@H](Cc1cccc2[nH]ccc12)C(=O)N[C@H](C(=O)N[C@@H](CC(C)C)C(=O)O)C(C)(C)C [NT69L] (H-[NMeR]KP[Ala(indol-4-yl)][Tle]L-OH; C-terminus assumed)
targetOrSystem: hNTS1 (Homo sapiens, UniProt P30989)
labelValue: Satisfied

molecule: CC[C@H](C)[C@H](NC(=O)[C@H](Cc1c[nH]c2ccccc12)NC(=O)[C@@H]1CCCN1C(=O)[C@H](CCCNC(=N)N)NC(=O)[C@H](N)CCCCN)C(=O)N[C@@H](CC(C)C)C(=O)O [NT67T, [D-Lys^8,L-Trp^11]NT(8-13)] (H-[dK]RPWIL-OH; N-terminus and C-terminus assumed)
targetOrSystem: hNTS1 (Homo sapiens, UniProt P30989)
labelValue: Satisfied

molecule: CC(C)C[C@H](NC(=O)[C@@H](NC(=O)[C@H](Cc1cccc2[nH]ccc12)NC(=O)[C@@H]1CCCN1C(=O)[C@@H](CCCN)NC(=O)[C@@H](N)CCCNC(=N)N)C(C)(C)C)C(=O)O [NT77] (H-R[dOrn]P[Ala(indol-4-yl)][Tle]L-OH; N-terminus and C-terminus assumed)
targetOrSystem: hNTS1 (Homo sapiens, UniProt P30989)
labelValue: Not satisfied

molecule: CC[C@H](C)[C@H](NC(=O)[C@H](Cc1ccc(O)cc1)NC(=O)[C@@H]1CCCN1C(=O)[C@H](CCCN)NC(=O)[C@@H](N)CCCNC(=N)N)C(=O)N[C@@H](CC(C)C)C(=O)O [NT23, [L-Orn^9]NT(8-13)] (H-R[Orn]PYIL-OH; N-terminus and C-terminus assumed)
targetOrSystem: hNTS1 (Homo sapiens, UniProt P30989)
labelValue: Satisfied

molecule: CC[C@H](C)[C@H](NC(=O)[C@H](Cc1ccc(O)cc1)NC(=O)[C@@H]1CCCN1C(=O)[C@H](CCCN)NC(=O)[C@H](CCCNC(=N)N)NC(=O)[C@@H]1CCCN1C(=O)[C@H](CCCCN)NC(=O)[C@H](CC(N)=O)NC(=O)[C@H](CCC(=O)O)NC(=O)[C@H](Cc1ccc(O)cc1)NC(=O)[C@H](CC(C)C)NC(=O)[C@@H]1CCC(=O)N1)C(=O)N[C@@H](CC(C)C)C(=O)O [NT60, [L-Orn^9]NT(1-13)] ([pGlu]LYENKPR[Orn]PYIL-OH; C-terminus assumed)
targetOrSystem: hNTS1 (Homo sapiens, UniProt P30989)
labelValue: Satisfied

molecule: CC[C@H](C)[C@H](NC(=O)[C@H](Cc1ccc(O)cc1)NC(=O)[C@@H]1CCCN1C(=O)[C@@H](CCCN)NC(=O)[C@H](CCCNC(=N)N)NC(=O)[C@@H]1CCCN1C(=O)[C@H](CCCCN)NC(=O)[C@H](CC(N)=O)NC(=O)[C@H](CCC(=O)O)NC(=O)[C@H](Cc1ccc(O)cc1)NC(=O)[C@H](CC(C)C)NC(=O)[C@@H]1CCC(=O)N1)C(=O)N[C@@H](CC(C)C)C(=O)O [NT61, [D-Orn^9]NT(1-13)] ([pGlu]LYENKPR[dOrn]PYIL-OH; C-terminus assumed)
targetOrSystem: hNTS1 (Homo sapiens, UniProt P30989)
labelValue: Not satisfied
